Provenance of the data: PubChem BioAssay (NCI)

tested on: SK-MEL-28 melanoma; test: NCI tumour cell line growth inhibition, 48 h
# reported GI50; entries follow
ENDPOINT: GI50

- CN(CC(=O)Nc1nc2ccccc2[nH]1)S(=O)(=O)c1ccc(Cl)cc1: > 100000 nM
- O=C(Nc1cccc(-c2ccc(Cl)c(C(F)(F)F)c2)c1)C1CCN(Cc2cccc3cccnc23)CC1: 1750 nM
- O=C(N/N=C/c1ccc(O)cc1O)c1cccc(Nc2ccnc(C(F)(F)F)c2)c1: 1830 nM
- COc1cc(-c2csc(NC(=O)Nc3ccc(C(F)(F)F)cc3)n2)cc(OC)c1OC: 2220 nM
- CC(=O)[CH-]C(=O)c1ccccc1.CC(=O)[CH-]C(=O)c1ccccc1.Cc1cc([O-])ccc1Cl.Cc1cc([O-])ccc1Cl.[Ti+4]: 34700 nM

---

system: BT-549 breast; experiment: NCI tumour cell line growth inhibition, 48 h
# reported TGI; entries follow
ENDPOINT: TGI

* COC(=O)C1Cc2ccc3c(c2C1=O)CCCC3 (stereo unspecified) | > 100 µM
* CC(C)(C)OC(=O)NCCCC(=O)NC1(c2cc3ccccc3s2)CCCCC1 | 32.7 µM
* O=S(=O)(SC1=NCCN1)c1cccc2ccccc12 | 76 µM
* CC(=O)c1c(CO[N+](=O)[O-])n([O-])c2ccccc2[n+]1=O | > 100 µM
* COc1cccc(Nc2nc(N)nc(N)c2N)c1 | > 100 µM
* CN(CC(=O)Nc1nc2ccccc2[nH]1)S(=O)(=O)c1ccc(Cl)cc1 | > 100 µM
* COc1cc2c(cc1OC)CC1c3cc(OC)c(OC)cc3CCN1CC2 (stereo unspecified) | > 100 µM
* O=C1NC(N2CCCCC2)=N/C1=C\c1ccc(Cl)cc1 | > 100 µM
* COC(=O)[C@H]1COC(=O)N1 | > 100 µM
* CC(CN(C)C)Oc1ccccc1NC1=C(Cl)C(=O)C(Nc2ccccc2OC(C)CN(C)C)=C(Cl)C1=O (stereo unspecified) | 2.98 µM
* C/C(=N\NC(=S)SCc1ccccc1)c1ccccn1 | 6.07 µM

---

system: NCI-H23 lung; experiment: NCI tumour cell line growth inhibition, 48 h
ENDPOINT: TGI

- C#CCN(N=O)C(=O)NCCCCC(NC(C)=O)C(=O)NCc1ccccc1 (stereo not drawn): > 100 µM
- O=C1C2C(C(=O)N1c1ccccc1)C1([N+](=O)[O-])C=C3c4ccccc4N(C(=O)c4ccccc4)C32C2C(=O)N(c3ccccc3)C(=O)C21 (stereo not drawn): > 100 µM
- CC1(N)CCN(c2cnc(-c3cccc(Cl)c3Cl)c(N)n2)CC1: > 100 µM

---

# reported TGI; entries follow
tested on: SK-MEL-28 melanoma; assay: NCI tumour cell line growth inhibition, 48 h
Where a SMILES comes first, the peptide text is derived from it. [ ]: non-standard residue; d: D form. The star is where a group is joined. ξ: configuration not given here. dTle = CC(C)(C)[C@@H](N)C(=O)O; ξLac(3-iPr) = CC(C)CC(O)C(=O)O; NMeV = CN[CH](C(=O)O)C(C)C; 4Abz = Nc1ccc(C(=O)O)cc1; NMeA = CN[CH](C)C(=O)O; βAla = NCCC(=O)O; NHOH = ON*
ENDPOINT: TGI

• O=C(/C=C/C12c3ccccc3C(c3ccccc31)C1C(=O)NC(=O)C12)c1ccc(F)cc1 (stereo not given) = 3.39 µM
• CCCCCCCCCNC(=O)/C=C/c1ccc(O)c(O)c1 = > 100 µM
• C[C@@H](NC(=O)[C@H](NC(=O)[C@@H]1CCCN1C(=O)CNC(=O)c1ccc(N)cc1)C(C)(C)C)C(=O)NO (H-[4Abz]GP[dTle][dA]-{NHOH}) = > 100 µM
• COC(=O)C(Br)C1CCc2ccccc21 (stereo not given) = > 100 µM
• CCc1cc(CCC(=O)Nc2ccccc2[N+](=O)[O-])[nH]c(=S)n1 = > 100 µM
• Cc1ccc(OCC2OC(n3cnc4c(Cl)nc(Cl)nc43)CC2Oc2ccc(C)cc2)cc1 (stereo not given) = 7.56 µM
• O=C(O)CCC(N=NNc1ccc(-c2nc3ccccc3[nH]2)cc1)C(=O)O (stereo not given) = > 100 µM
• COc1cccc(Nc2nc(N)nc(N)c2N)c1 = > 100 µM
• Cc1ccnc2[nH]c(-c3ccc(F)cc3)cc(=O)c12 = > 100 µM
• CCC(C)C1NC(=O)C2CCCN2C(=O)C(CC(C)C)OC(=O)CCNC(=O)C(C)N(C)C(=O)C(C(C)C)N(C)C1=O (stereo not given) (cyclo([ξLac(3-iPr)]PI[NMeV][NMeA][βAla]); configuration not given here) = > 100 µM
• N#C/C(=C\c1ccc(Br)cc1)n1nnc2cc(Cl)c(Cl)cc21 = 3.81 µM
• O=C(CCn1[nH]c(=O)c(Cl)c(Cl)c1=O)NNC(=O)C[n+]1ccccc1 = > 100 µM
• COc1ccc2c3c(c(C(=O)c4ccccc4)oc13)CCC2 = > 100 µM
• O=C(NO)[C@@H](Cc1ccccc1)NS(=O)(=O)c1ccc(-c2ccccc2)cc1 = > 25 µM
• CC1=C(C(=O)Nc2cc(Cl)c3[nH]ncc3c2)C(c2ccc(C(F)(F)F)cc2)CC(=O)N1 (stereo not given) = > 25 µM
• Cc1cc(-c2ccccn2)cc(C)c1/C=C/c1cncc(-c2nn[nH]n2)c1 = > 25 µM
• COC(=O)c1cc2c3ccccc3[nH]c2c2sccc12 = > 100 µM
• CCCCCCCCCCCCCCCCCCOCC(CCP(=O)(CP(=O)(O)O)Oc1ccccc1)OCCCCCCCCCCCCCCCCCC (stereo not given) = > 100 µM
• Cc1cccc2c1CCC21OC(=O)c2c1ccc1ccccc21 (stereo not given) = > 100 µM
• CCOC(=O)c1cnc2sc3ccc4ccccc4c3n2c1=O = > 100 µM
• O=C1c2ccccc2-c2c1c1c(O)cccc1n2Cc1ccccn1 = > 100 µM
• CSc1snc2sc3c(Cl)nnnc3c12 = 23.2 µM
• O=C1c2ccccc2C(=O)c2c(Nc3cc4c5c(ccc6c7ccc8c9c(cc(Nc%10cccc%11c%10C(=O)c%10ccccc%10C%11=O)c(c3c56)c97)-c3ccccc3C8=O)C(=O)c3ccccc3-4)cccc21 = > 100 µM
• O=C(Nc1cccc(-c2ccc(Cl)c(C(F)(F)F)c2)c1)C1CCN(Cc2cccc3cccnc23)CC1 = 3.14 µM
• CC1=C(O)/C(=C/C(C)CCC/C(C)=C/C=C/C(C)CCCc2ccoc2)OC1=O (stereo not given) = > 100 µM
